System: K562 cells
test: MTT anti-proliferative assay, K562
Type: cell-based
experimentalSetup: Homo sapiens, Table 2, 48 h, read-out: IC50 ± SD, K562
pIC50: −log10 of the molar value.
testReadout: pIC50

I = O=C(CN1CCN(c2ccc(Br)cc2)CC1)Nc1n[nH]c2ccc(-c3ccc(Cl)c(Cl)c3)cc12
II = O=C(CN1CCN(c2ccc(Cl)c(Cl)c2)CC1)Nc1n[nH]c2ccc(-c3cccc(F)c3)cc12
Q. Please choose the item with the lower pIC50 value from this pair: I and II In your reply, give the label of the chosen option.
A. I
(I: 5.00, II: 5.28)

1 = O=C(CN1CCN(c2ccncc2)CC1)Nc1n[nH]c2ccc(-c3cc(F)cc(F)c3)cc12
2 = O=C(CN1CCN(c2ccc(Cl)cc2)CC1)Nc1n[nH]c2ccc(-c3cc(F)cc(F)c3)cc12
Q. Select the item with the higher value of pIC50 from the options 1 and 2 listed. Give the label under which the chosen entry appears.
A. 2

P = O=C(CN1CCN(c2ccc(Cl)cc2)CC1)Nc1n[nH]c2ccc(-c3ccc(Cl)c(Cl)c3)cc12
Q = O=C(CN1CCN(c2ccc(C(F)(F)F)cc2)CC1)Nc1n[nH]c2ccc(-c3ccc(Cl)c(F)c3)cc12
Q. For the pair P and Q , which entry has the numerically smaller recorded pIC50? Kindly state the label of the option you pick.
A. P

----------
System: K562 cells
test: MTT anti-proliferative assay, K562
Type: cell-based
experimentalSetup: Homo sapiens, Table 1, 48 h, read-out: IC50 ± SD, K562
testReadout: IC50 (µM)

chemicalSmiles	IC50, µM
O=C(CSc1ccccc1Br)Nc1n[nH]c2ccc(-c3cc(F)cc(F)c3)cc12	8.19
O=C(CSc1ccc(Br)cc1)Nc1n[nH]c2ccc(-c3cc(F)cc(F)c3)cc12	8.86
O=C(CSc1ccc(Br)cc1)Nc1n[nH]c2ccc(-c3cccc(F)c3)cc12	9.33
O=C(CSc1ccc([N+](=O)[O-])cc1)Nc1n[nH]c2ccc(-c3ccc(Cl)c(F)c3)cc12	6.27

a = O=C(CSc1ccc(F)cc1)Nc1n[nH]c2ccc(-c3cccc(F)c3)cc12
b = O=C(CSc1ccc(Br)cc1)Nc1n[nH]c2ccc(-c3ccc(Cl)c(F)c3)cc12
Q. Between a and b , which one has the lower reported IC50 value? Indicate your choice by writing its label.
A. a

----------
testReadout: melting point

Guide cases for melting point, answers given:
molecule	melting point
O=C(CSc1ccc(Br)cc1)Nc1n[nH]c2ccc(-c3ccc(Cl)c(F)c3)cc12 [5h]	267 to 268 °C
O=C(CSc1ccc(Br)cc1)Nc1n[nH]c2ccc(-c3cc(F)cc(F)c3)cc12 [compound 5k]	204 to 205 °C
O=C(CN1CCN(c2ccncc2)CC1)Nc1n[nH]c2ccc(-c3cc(F)cc(F)c3)cc12 [6l]	200 to 201 °C
COc1ccc(-c2ccc3[nH]nc(NC(=O)CN4CCN(c5ccc(C(F)(F)F)cc5)CC4)c3c2)cc1 [6d]	187 to 189 °C
O=C(CN1CCN(c2ccc(C(F)(F)F)cc2)CC1)Nc1n[nH]c2ccc(-c3ccc(Cl)c(F)c3)cc12 [compound 6o]	183 to 185 °C
O=C(CSc1ccccc1Br)Nc1n[nH]c2ccc(-c3cc(F)cc(F)c3)cc12 [5l]	199 to 200 °C
O=C(CSc1ccc([N+](=O)[O-])cc1)Nc1n[nH]c2ccc(-c3ccc(Cl)c(F)c3)cc12 [5i]	243 to 246 °C
COc1ccc(SCC(=O)Nc2n[nH]c3ccc(-c4ccc(OC(F)(F)F)cc4)cc23)cc1 [5f]	215 to 216 °C
O=C(CN1CCN(c2ccc(Cl)cc2)CC1)Nc1n[nH]c2ccc(-c3cc(F)cc(F)c3)cc12 [6j]	179 to 181 °C
O=C(CSc1ccc(F)cc1)Nc1n[nH]c2ccc(-c3ccc(Cl)c(F)c3)cc12 [5g]	178 to 200 °C

Q. Requested field: melting point. Item: O=C(CSc1ccc(Cl)cc1)Nc1n[nH]c2ccc(-c3cc(F)cc(F)c3)cc12 [5m]
A. 200 to 202 °C

Q. Which melting point value belongs to COc1ccc(N2CCN(CC(=O)Nc3n[nH]c4ccc(-c5ccc(Cl)c(F)c5)cc34)CC2)cc1 [6n] ?
A. 174 to 176 °C

Q. Return reported melting point; argument: COc1ccc(SCC(=O)Nc2n[nH]c3ccc(-c4cc(F)cc(F)c4)cc23)cc1 [5j]
A. 204 to 205 °C
